Experiment: Determination of the solubility of organic UV filters in levulynates used as solvents
Type: physicochemical
Conditions: UV filter dissolved in the named levulynate as solvent; stirred seven days at 25° C.; UV/Vis-spectrometry
Property name: Solubility of Diethylamino Hydroxybenzoyl Hexyl Benzoate (w/%)

# Compound, Readout units, Measurement
rows = [
    ("CCCCCCCCOC(=O)CCC(C)=O [C8-levulynate, levulinic acid octyl ester]", "w/%", 42.6),
    ("CCCCC(CC)COC(=O)CCC(C)=O (stereo not shown) [2-Ethylhexyl-levulynate]", "w/%", 33.4),
    ("CCCCCCCCCCCCOC(=O)CCC(C)=O [C12-Levulynate, levulinic acid dodecyl ester]", "w/%", 29.1),
    ("CCCCCCCCCCOC(=O)CCC(C)=O [C10-levulynate, levulinic acid decyl ester]", "w/%", 31.0),
]

* * *

Assay: Determination of the solubility of organic UV filters in levulynates used as solvents
Type: physicochemical
Conditions: UV filter dissolved in the named levulynate as solvent; stirred seven days at 25° C.; UV/Vis-spectrometry
Property name: Solubility of Bis-Ethylhexyloxyphenol Methoxyphenyl Triazine (w/%)

# Molecule, Measurement
records = [
    ("CCCCCCCCCCOC(=O)CCC(C)=O [C10-levulynate, levulinic acid decyl ester]", 9.1),
]

A = CCCCC(CC)COC(=O)CCC(C)=O (stereo not shown) [2-Ethylhexyl-levulynate]
B = CCCCCCCCOC(=O)CCC(C)=O [C8-levulynate, levulinic acid octyl ester]
C = CCCCCCCCCCCCOC(=O)CCC(C)=O [C12-Levulynate, levulinic acid dodecyl ester]
Q: Task field, ranking: reported Solubility of Bis-Ethylhexyloxyphenol Methoxyphenyl Triazine, descending order. Record the ranking as a list of labels in the requested order.
Result: B, A, C
(B: 10.4 w/%, A: 6.5 w/%, C: 3.0 w/%)
